system-under-test: Histamine H3 receptor (Homo sapiens, UniProt Q9Y5N1)
Sequence (Q9Y5N1 whole entry): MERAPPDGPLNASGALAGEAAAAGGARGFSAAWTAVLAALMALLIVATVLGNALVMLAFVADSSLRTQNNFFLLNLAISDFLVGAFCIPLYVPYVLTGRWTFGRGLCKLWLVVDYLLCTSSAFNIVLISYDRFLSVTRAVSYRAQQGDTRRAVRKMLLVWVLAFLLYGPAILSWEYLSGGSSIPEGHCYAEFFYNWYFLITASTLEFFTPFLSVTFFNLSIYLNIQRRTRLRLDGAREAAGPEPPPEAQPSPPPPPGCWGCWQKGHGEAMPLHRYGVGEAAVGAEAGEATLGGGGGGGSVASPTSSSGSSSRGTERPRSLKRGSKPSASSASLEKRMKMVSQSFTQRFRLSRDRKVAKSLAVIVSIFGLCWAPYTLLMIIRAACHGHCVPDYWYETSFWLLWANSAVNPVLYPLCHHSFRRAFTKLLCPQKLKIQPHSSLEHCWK
protocol-description: Antagonist activity at human histamine H3 receptor expressed in HEK293 cells assessed as inhibition of calcium mobilization by FLIPR assay
assay-metric: IC50 (nM)
Unit nM implied. Number only.

Query: Please give measured IC50 of the following entry: CCN(CC)CCOc1ccc(NC(=O)Nc2c(Cl)cccc2Cl)cc1
Result: 1

Query: Please give measured IC50 of the following entry: CC(=O)N(C)C1CCN(C(=O)Nc2ccc(N3CCC(N4CCCC4C)C3)cc2)C1 (stereo not drawn)
Result: 1.1

Query: Please give measured IC50 of the following entry: Cc1cc(NC(=O)Nc2cc(Cl)cc(Cl)c2)ccc1N1CCC(N2CCCC2C)C1 (stereo not drawn)
Result: 3.1

Query: Please give measured IC50 of the following entry: CC1CCCN1C1CCN(c2ccc(NC(=O)N3CCCCC3)cc2)C1 (stereo not drawn)
Result: 0.3

Query: Please give measured IC50 of the following entry: CC1CCCN1C1CCN(c2ccc(NC(=O)NCc3cc(Cl)cc(Cl)c3)cc2)C1 (stereo not drawn)
Result: 0.2

Query: Please give measured IC50 of the following entry: O=C(Nc1ccc(OCCN2CCCCC2)cc1)Nc1ccc(F)cc1F
Result: 40.5

Query: Please give measured IC50 of the following entry: CC1CCCN1C1CCN(c2ccc(NC(=O)Nc3ccc(Oc4ccccc4)cc3)cc2)C1 (stereo not drawn)
Result: 1.4

Query: Please give measured IC50 of the following entry: CC(=O)N1CCN(C(=O)Nc2ccc(N3CCC(N4CCCC4C)C3)c(C)c2)CC1 (stereo not drawn)
Result: 2.3

Query: Please give measured IC50 of the following entry: O=C(Nc1ccc(Cl)cc1)Nc1ccc(OCCN2CCCCC2)cc1
Result: 27.5

Query: Please give measured IC50 of the following entry: Cc1cc(N2CCC(N3CCCC3C)C2)ccc1NC(=O)N1CCN(C)CC1 (stereo not drawn)
Result: 0.8

Query: Please give measured IC50 of the following entry: Cc1cc(N2CCC(N3CCCC3C)C2)ccc1NC(=O)Nc1cc(Cl)cc(Cl)c1 (stereo not drawn)
Result: 0.9

Query: Please give measured IC50 of the following entry: CCN(CC)CCOc1ccc(NC(=O)Nc2ccc(Cl)cc2Cl)cc1
Result: 39.1

Query: Please give measured IC50 of the following entry: O=C(Nc1ccc(Cl)cc1)Nc1ccc(OCCCN2CCCCC2)cc1
Result: 0.7

Query: Please give measured IC50 of the following entry: CN(C)CCc1ccc(NC(=O)Nc2ccc(CCN(C)C)cc2)cc1
Result: 6.5

Query: Please give measured IC50 of the following entry: Cc1cccc(NC(=O)Nc2ccc(OCCCN(C)C)cc2)c1C
Result: 14.7

Query: Please give measured IC50 of the following entry: Cc1cc(NC(=O)NC2CCCCC2)ccc1N1CCC(N2CCCC2C)C1 (stereo not drawn)
Result: 0.2

Query: Please give measured IC50 of the following entry: Cc1cc(NC(=O)Nc2ccc(Oc3ccccc3)cc2)ccc1N1CCC(N2CCCC2C)C1 (stereo not drawn)
Result: 0.6

Query: Please give measured IC50 of the following entry: CC1CCCN1C1CCN(c2ccc(NC(=O)Nc3cc(Cl)cc(Cl)c3)cc2)C1 (stereo not drawn)
Result: 1.2

Query: Please give measured IC50 of the following entry: CC(=O)N1CCN(C(=O)Nc2ccc(N3CCC(N4CCCC4C)C3)cc2)CC1 (stereo not drawn)
Result: 0.5

Query: Please give measured IC50 of the following entry: O=C(Nc1ccc(OCCCN2CCCCC2)cc1)Nc1ccc(F)cc1F
Result: 0.5

Query: Please give measured IC50 of the following entry: Cc1cccc(NC(=O)Nc2ccc(OCCN(C)C)cc2)c1C
Result: 73.1

Query: Please give measured IC50 of the following entry: CCN(CC)CCCOc1ccc(NC(=O)Nc2ccc(F)cc2F)cc1
Result: 7.9

Query: Please give measured IC50 of the following entry: CC1CCCN1C1CCN(c2ccc(NC(=O)NC3CCCCC3)cc2)C1 (stereo not drawn)
Result: 0.1

Query: Please give measured IC50 of the following entry: CN(C)CCOc1ccc(NC(=O)Nc2ccc(F)cc2F)cc1
Result: 149

Query: Please give measured IC50 of the following entry: Cc1cc(N2CCC(N3CCCC3C)C2)ccc1NC(=O)NC1CCCCC1 (stereo not drawn)
Result: 0.2

Query: Please give measured IC50 of the following entry: CC1CCCN1C1CCN(c2ccc(NC(=O)NCc3cccs3)cc2)C1 (stereo not drawn)
Result: 0.1

Query: Please give measured IC50 of the following entry: O=C(Nc1ccc(OCCCN2CCCCC2)cc1)Nc1cc(Cl)cc(Cl)c1
Result: 0.5

Query: Please give measured IC50 of the following entry: Cc1c(Cl)cc(NC(=O)Nc2ccc(OCCCN3CCCCC3)cc2)cc1Cl
Result: 0.2
